- measured_on: Lysine-specific demethylase 5B (Homo sapiens)
- Sequence (Q9UGL1 whole entry): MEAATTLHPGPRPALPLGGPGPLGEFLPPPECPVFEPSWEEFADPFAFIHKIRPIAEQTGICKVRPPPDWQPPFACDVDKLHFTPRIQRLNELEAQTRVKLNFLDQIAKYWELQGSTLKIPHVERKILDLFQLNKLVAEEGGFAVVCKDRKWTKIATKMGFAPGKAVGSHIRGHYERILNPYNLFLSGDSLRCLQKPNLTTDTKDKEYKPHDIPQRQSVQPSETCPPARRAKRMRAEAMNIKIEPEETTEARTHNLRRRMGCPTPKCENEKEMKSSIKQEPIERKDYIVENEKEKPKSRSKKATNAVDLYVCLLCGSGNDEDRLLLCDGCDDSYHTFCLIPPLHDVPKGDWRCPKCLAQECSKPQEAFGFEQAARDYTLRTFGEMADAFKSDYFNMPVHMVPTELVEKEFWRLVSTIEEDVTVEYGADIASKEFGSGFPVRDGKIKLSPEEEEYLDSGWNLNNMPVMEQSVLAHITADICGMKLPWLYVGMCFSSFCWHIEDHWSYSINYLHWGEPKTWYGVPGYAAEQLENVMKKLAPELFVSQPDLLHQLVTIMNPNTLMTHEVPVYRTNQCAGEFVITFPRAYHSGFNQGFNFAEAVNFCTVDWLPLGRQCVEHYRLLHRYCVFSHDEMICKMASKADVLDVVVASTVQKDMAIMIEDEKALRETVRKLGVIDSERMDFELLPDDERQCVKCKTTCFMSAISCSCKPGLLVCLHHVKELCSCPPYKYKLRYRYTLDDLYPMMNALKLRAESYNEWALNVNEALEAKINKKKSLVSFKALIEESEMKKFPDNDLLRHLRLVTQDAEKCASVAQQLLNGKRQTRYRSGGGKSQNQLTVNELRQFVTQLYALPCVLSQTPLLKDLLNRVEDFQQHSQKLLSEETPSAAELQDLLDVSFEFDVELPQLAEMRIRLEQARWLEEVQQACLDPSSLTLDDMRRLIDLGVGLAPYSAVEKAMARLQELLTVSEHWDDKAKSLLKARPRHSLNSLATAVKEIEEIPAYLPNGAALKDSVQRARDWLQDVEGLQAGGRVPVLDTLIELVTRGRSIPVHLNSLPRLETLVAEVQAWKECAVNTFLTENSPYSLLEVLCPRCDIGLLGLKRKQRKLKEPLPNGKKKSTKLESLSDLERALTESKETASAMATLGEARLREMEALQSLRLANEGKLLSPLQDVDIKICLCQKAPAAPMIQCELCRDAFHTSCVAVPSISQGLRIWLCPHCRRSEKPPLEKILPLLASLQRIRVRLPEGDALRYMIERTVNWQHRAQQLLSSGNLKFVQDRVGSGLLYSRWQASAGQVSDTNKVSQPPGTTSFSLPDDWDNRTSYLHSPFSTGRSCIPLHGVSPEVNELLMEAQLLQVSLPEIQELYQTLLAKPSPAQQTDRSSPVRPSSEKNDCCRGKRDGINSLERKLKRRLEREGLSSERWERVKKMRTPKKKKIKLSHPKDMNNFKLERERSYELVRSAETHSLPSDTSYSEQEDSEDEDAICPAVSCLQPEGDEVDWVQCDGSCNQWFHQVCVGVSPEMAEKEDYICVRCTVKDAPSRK
- measurement_protocol: Inhibition of recombinant human N-terminal FLAG-tagged KDM5B expressed in Sf9 insect cells at 10 uM using biotin-H3K4me as substrate by ALPHA relative to control
measurement_label: inhibition (%)
Kindly provide the numeric value in % only, without the unit symbol.

[
  {
    "structure_smiles": "Cc1ccc(-n2cc(C(=O)N3CCN(CCN4CCCC4)CC3)c(-c3ccccc3)n2)cc1",
    "unit_spec": "%",
    "inhibition": 94.2
  },
  {
    "structure_smiles": "CC(C)(CNC(=O)c1cn(-c2ccc(Cl)cc2)nc1-c1ccccc1)N1CCOCC1",
    "unit_spec": "%",
    "inhibition": 62
  }
]

Look up inhibition: CCc1ccc(-c2nn(-c3ccccc3)cc2C(=O)NCCN2CCOCC2)cc1
45.3

Entry under review: O=C(NCCN1CCOCC1)c1cn(-c2ccccc2)nc1-c1ccccc1 . Reported inhibition?
76.4

Given CC(C)c1ccc(-c2nn(-c3ccccc3)cc2C(=O)NCCN2CCOCC2)cc1 , state its recorded inhibition.
-5.81

Which inhibition is reported for this compound? C#CCNC(=O)c1cn(-c2ccccc2)nc1-c1ccccc1
84.6

Consider the compound COc1ccccc1-n1cc(C(=O)NCC(C)(C)N2CCOCC2)c(-c2ccccc2)n1 and give its measured inhibition.
92.3

Field request: inhibition | item: O=C(NCC1(N2CCOCC2)CCCCC1)c1cn(-c2ccccc2)nc1-c1ccccc1
-1.95

Would you mind telling me what inhibition value was observed for CC(C)(CNC(=O)c1cn(-c2ccccc2)nc1-c1ccccc1)N1CCN(c2ccccc2)CC1 ?
92.3

// inhibition lookup, key: Cc1ccc(-n2cc(C(=O)NCC(C)(C)N3CCOCC3)c(-c3ccccc3)n2)cc1
82.4

Reference source for all entries: ChEMBL document CHEMBL4680221
